Tested on: mouse
assay details: LD50 mouse i.v.
Type: in vivo
parameter: LD50

Reported LD50 of CC(=O)N(CC(O)CO)c1c(I)c(C(=O)NCC(O)CO)c(I)c(C(=O)NCC(O)CO)c1I (stereo not drawn) [Iohexol] : 15 g I/kg

Reported LD50 of COCC(=O)Nc1c(I)c(C(=O)NCC(O)CO)c(I)c(C(=O)N(C)CC(O)CO)c1I (stereo not drawn) [Iopromide] : 15 g I/kg

Reported LD50 of CN(C(=O)CO)c1c(I)c(C(=O)NCC(O)CO)c(I)c(C(=O)NCC(O)CO)c1I (stereo not drawn) [Iomeprol] : 14 g I/kg

Reported LD50 of C[C@H](O)C(=O)Nc1c(I)c(C(=O)NC(CO)CO)c(I)c(C(=O)NC(CO)CO)c1I [Iopamidol] : 15 g I/kg

Reported LD50 of CN(CC(O)CO)C(=O)c1c(I)c(NC(=O)CO)c(I)c(C(=O)NCCO)c1I (stereo not drawn) [Example 1] : 18 g I/kg

Reported LD50 of CC(=O)N(CC(O)CO)c1c(I)c(C(=O)NCCO)c(I)c(C(=O)NCC(O)CO)c1I (stereo not drawn) [Ioxilan] : 15 g I/kg

* * *

assay details: Viscosity of contrast medium solutions
Format: physicochemical
condition: 37° C., 370 mg I/ml
For each of the compounds below, state its Viscosity.
Use cP as the unit, but write only the number.

Reported Viscosity of CN(C(=O)CO)c1c(I)c(C(=O)NCC(O)CO)c(I)c(C(=O)NCC(O)CO)c1I (stereo not shown) [Iomeprol] : 8.6

Reported Viscosity of CN(CC(O)CO)C(=O)c1c(I)c(NC(=O)CO)c(I)c(C(=O)NCCO)c1I (stereo not shown) [Example 1] : 6.6

Reported Viscosity of COCC(=O)Nc1c(I)c(C(=O)NCC(O)CO)c(I)c(C(=O)N(C)CC(O)CO)c1I (stereo not shown) [Iopromide] : 9.5

Reported Viscosity of C[C@H](O)C(=O)Nc1c(I)c(C(=O)NC(CO)CO)c(I)c(C(=O)NC(CO)CO)c1I [Iopamidol] : 9.4

* * *

assay details: Osmolality of contrast medium solutions
Format: physicochemical
condition: 370 mg I/ml (37° C.)
For each of the molecules below, state its Osmolality.
Use mosm/kg H2 O as the unit, but write only the number.

Reported Osmolality of COCC(=O)Nc1c(I)c(C(=O)NCC(O)CO)c(I)c(C(=O)N(C)CC(O)CO)c1I (stereo not shown) [Iopromide] : 770

Reported Osmolality of CN(C(=O)CO)c1c(I)c(C(=O)NCC(O)CO)c(I)c(C(=O)NCC(O)CO)c1I (stereo not shown) : 680

Reported Osmolality of `C[C@H](O)C(=O)Nc1c(I)c(C(=O)NC(CO)CO)c(I)c(C(=O)NC(CO)CO)c1I` : 830

Reported Osmolality of CN(CC(O)CO)C(=O)c1c(I)c(NC(=O)CO)c(I)c(C(=O)NCCO)c1I (stereo not shown) : 590
